- tested.target: GCK (Homo sapiens)
- Construct: purchased Upstate, Millipore Bioscience Division (KinaseProfiler service)
- Sequence (Q12851 whole entry): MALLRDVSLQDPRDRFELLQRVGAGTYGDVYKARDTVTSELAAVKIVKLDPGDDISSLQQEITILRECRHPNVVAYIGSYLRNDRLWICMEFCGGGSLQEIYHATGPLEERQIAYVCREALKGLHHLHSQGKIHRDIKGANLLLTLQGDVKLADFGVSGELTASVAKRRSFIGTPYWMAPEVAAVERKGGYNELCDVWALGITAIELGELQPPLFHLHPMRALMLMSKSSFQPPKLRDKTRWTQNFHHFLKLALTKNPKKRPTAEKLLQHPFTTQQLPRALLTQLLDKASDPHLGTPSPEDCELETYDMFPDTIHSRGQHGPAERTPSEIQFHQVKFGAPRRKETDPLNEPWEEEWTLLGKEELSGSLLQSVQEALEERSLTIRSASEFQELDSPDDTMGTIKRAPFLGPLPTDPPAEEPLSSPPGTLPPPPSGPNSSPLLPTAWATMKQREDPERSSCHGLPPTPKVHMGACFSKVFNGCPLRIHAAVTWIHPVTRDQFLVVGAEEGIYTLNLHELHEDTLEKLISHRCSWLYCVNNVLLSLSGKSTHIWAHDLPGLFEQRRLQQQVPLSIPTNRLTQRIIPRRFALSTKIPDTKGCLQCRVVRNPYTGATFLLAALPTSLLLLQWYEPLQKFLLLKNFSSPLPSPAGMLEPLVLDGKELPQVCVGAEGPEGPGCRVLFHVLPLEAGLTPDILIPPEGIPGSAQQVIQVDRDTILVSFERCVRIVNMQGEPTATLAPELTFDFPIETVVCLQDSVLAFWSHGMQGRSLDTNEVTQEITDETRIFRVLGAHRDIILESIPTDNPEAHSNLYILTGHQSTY
- procedure.details: Kinase panel screen, GCK
- Format: biochemical
- condition.set: 1 μM test compound, 10 μM ATP

- item.smiles: "NC(=O)Cn1ccc2cc(CN3CCC[C@@H](Nc4ccc5[nH]ncc5c4)C3)ccc21"
  tested.target: "GCK (Homo sapiens)"
  percent inhibition at 1 µM / %: 93
- item.smiles: "NC(=O)Cn1ccc2cc(CN3CC[C@@H](Nc4cccc5cnccc45)C3)ccc21"
  tested.target: "GCK (Homo sapiens)"
  percent inhibition at 1 µM / %: 75
- item.smiles: "OCCn1ccc2cc(CN3CC[C@@H](Nc4cccc5cnccc45)C3)ccc21"
  tested.target: "GCK (Homo sapiens)"
  percent inhibition at 1 µM / %: 39
- item.smiles: "Cc1ccc(CN2CCC[C@@H](Nc3ccc4[nH]ncc4c3)C2)cc1OCCO"
  tested.target: "GCK (Homo sapiens)"
  percent inhibition at 1 µM / %: 96

----------
- tested.target: Mnk2 (Homo sapiens)
- Construct: purchased Upstate, Millipore Bioscience Division (KinaseProfiler service)
- Sequence (Q9HBH9 whole entry): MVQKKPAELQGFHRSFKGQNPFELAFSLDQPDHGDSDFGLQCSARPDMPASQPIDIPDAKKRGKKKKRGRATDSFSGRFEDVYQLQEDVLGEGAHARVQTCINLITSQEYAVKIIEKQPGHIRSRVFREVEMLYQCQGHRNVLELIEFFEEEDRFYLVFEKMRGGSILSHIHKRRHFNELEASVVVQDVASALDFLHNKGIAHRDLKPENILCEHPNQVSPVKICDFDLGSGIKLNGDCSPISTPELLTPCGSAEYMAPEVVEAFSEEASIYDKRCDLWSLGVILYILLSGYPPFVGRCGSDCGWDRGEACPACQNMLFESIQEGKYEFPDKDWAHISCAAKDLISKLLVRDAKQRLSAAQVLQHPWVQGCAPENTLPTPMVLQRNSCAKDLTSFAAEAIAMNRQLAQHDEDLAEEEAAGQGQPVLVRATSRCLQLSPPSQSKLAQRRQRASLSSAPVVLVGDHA
- procedure.details: Kinase panel screen, Mnk2
- Format: biochemical
- condition.set: 1 μM test compound, 10 μM ATP
measure: Percent inhibition, Mnk2

- item.smiles: "OCCn1ccc2cc(CN3CC[C@@H](Nc4cccc5cnccc45)C3)ccc21"
  measure: "Percent inhibition, Mnk2"
  experimental.value: "99%"
- item.smiles: "NC(=O)Cn1ccc2cc(CN3CC[C@@H](Nc4cccc5cnccc45)C3)ccc21"
  measure: "Percent inhibition, Mnk2"
  experimental.value: "49%"
- item.smiles: "NC(=O)Cn1ccc2cc(CN3CCC[C@@H](Nc4ccc5[nH]ncc5c4)C3)ccc21"
  measure: "Percent inhibition, Mnk2"
  experimental.value: "111%"
- item.smiles: "Cc1ccc(CN2CCC[C@@H](Nc3ccc4[nH]ncc4c3)C2)cc1OCCO"
  measure: "Percent inhibition, Mnk2"
  experimental.value: "108%"

----------
- tested.target: p70S6K (Homo sapiens, UniProt P23443, T412E)
- Construct: purchased Upstate Chemicon 14-486
- Sequence (P23443 1-421 T412E limits assumed): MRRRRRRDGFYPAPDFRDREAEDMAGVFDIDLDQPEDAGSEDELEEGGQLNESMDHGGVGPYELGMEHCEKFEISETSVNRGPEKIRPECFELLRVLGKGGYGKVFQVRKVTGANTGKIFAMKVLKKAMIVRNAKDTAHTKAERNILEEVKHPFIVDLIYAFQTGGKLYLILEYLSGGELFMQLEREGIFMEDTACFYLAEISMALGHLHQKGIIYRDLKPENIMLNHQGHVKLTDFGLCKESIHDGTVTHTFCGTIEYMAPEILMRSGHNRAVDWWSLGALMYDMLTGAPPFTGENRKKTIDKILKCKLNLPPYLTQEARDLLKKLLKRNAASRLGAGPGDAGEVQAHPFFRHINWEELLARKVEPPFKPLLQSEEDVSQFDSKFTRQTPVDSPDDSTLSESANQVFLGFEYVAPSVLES
- procedure.details: p70S6K inhibition assay (IMAP)
- Assay type: biochemical
- condition.set: average Ki (Example 31); read-out: p70S6K Ki
pKi: −log10 of the molar value.
measure: pKi

- item.smiles: "Cc1ccc(CN2CCC[C@H](Nc3ccc4[nH]ncc4c3)C2)cc1NS(=O)(=O)N(C)C"
  tested.target: "p70S6K (Homo sapiens, UniProt P23443, T412E)"
  measure: "pKi"
  experimental.value: 5.01
- item.smiles: "Cc1ccc(CN2CCC[C@@H](Nc3ccc4[nH]ncc4c3)C2)cc1NS(=O)(=O)N(C)C"
  tested.target: "p70S6K (Homo sapiens, UniProt P23443, T412E)"
  measure: "pKi"
  experimental.value: 5.26

----------
# maps each entry to its concentration at 15 min
- procedure.details: Compound plasma concentrations in mice at 15 min post administration
- Format: in vivo, mouse
- condition.set: mouse; mice, plasma, 15 min post administration (oral dosing), mean of n = 3 mice; read-out: Plasma Mean Concentration

- item.smiles: "Clc1cccc(CN2CCC[C@@H](Nc3ccc4[nH]ncc4c3)C2)c1"
  concentration at 15 min, nM: 260
- item.smiles: "Brc1ccc(CN2CCC[C@H](Nc3ccc4[nH]ncc4c3)C2)cc1"
  concentration at 15 min, nM: 330
- item.smiles: "Cc1ccc(CN2CCC[C@H](Nc3ccc4[nH]ncc4c3)C2)cc1NS(=O)(=O)N(C)C"
  concentration at 15 min, nM: 178
- item.smiles: "Cc1ccc(CN2CCC[C@@H](Nc3ccc4[nH]ncc4c3)C2)cc1NS(=O)(=O)N(C)C"
  concentration at 15 min, nM: 285
- item.smiles: "c1ccc(CN2CCC[C@H](Nc3ccc4[nH]ncc4c3)C2)cc1"
  concentration at 15 min, nM: 1860
- item.smiles: "c1cc2c(cc1CN1CCC[C@@H](Nc3ccc4[nH]ncc4c3)C1)OCCO2"
  concentration at 15 min, nM: 283
- item.smiles: "Cc1ccc(CN2CCC[C@H](Nc3ccc4[nH]ncc4c3)C2)cc1O"
  concentration at 15 min, nM: 479
- item.smiles: "OCc1ccc(CN2CCC[C@H](Nc3ccc4[nH]ncc4c3)C2)cc1"
  concentration at 15 min, nM: 12.8
- item.smiles: "C=Cc1ccc(CN2CCC[C@H](Nc3ccc4[nH]ncc4c3)C2)cc1"
  concentration at 15 min, nM: 1450
- item.smiles: "CC(C)c1ccc(CN2CCC[C@@H](Nc3ccc4[nH]ncc4c3)C2)cc1"
  concentration at 15 min, nM: 549
- item.smiles: "c1cc2cc(CN3CCC[C@@H](Nc4ccc5[nH]ncc5c4)C3)ccc2[nH]1"
  concentration at 15 min, nM: 274
- item.smiles: "OCCOc1cccc(CN2CCC[C@H](Nc3ccc4[nH]ncc4c3)C2)c1"
  concentration at 15 min, nM: 5.9
- item.smiles: "Fc1ccc(CN2CCC[C@@H](Nc3ccc4[nH]ncc4c3)C2)cc1"
  concentration at 15 min, nM: 1260
- item.smiles: "OCCOc1cccc(CN2CCC[C@@H](Nc3ccc4[nH]ncc4c3)C2)c1"
  concentration at 15 min, nM: 314
- item.smiles: "O=C(COc1cccc(CN2CC[C@@H](Nc3cccc4cnccc34)C2)c1)N1CCOCC1"
  concentration at 15 min, nM: 60.8
- item.smiles: "CC(=O)NCc1cccc(CN2CCC[C@@H](Nc3ccc4[nH]ncc4c3)C2)c1"
  concentration at 15 min, nM: 355
- item.smiles: "Clc1cccc(CN2CCC[C@H](Nc3ccc4[nH]ncc4c3)C2)c1"
  concentration at 15 min, nM: 639

These entries and their values trace back to patent US8299096B2.
